B1: FEM1B (parent)
chain: TLAALLLNRSESDIRYLLGYVSQQ

- Variants of: B1
- assay-name: protein stability index of a GFP-peptide fusion (GPS, HEK-293T) (PSI 1-6); higher = more stable;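 further: lentivirally expressed fusions sorted by FACS into six bins by GFP to DsRed ratio, PSI derived from sequencing read proportions per bin multiplied by bin number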
- measurement-context: c terminus: a fixed tail appended
Field: class. Source value: protein stability index. Ranges: low-valued = under 2, mid-valued = from 2 up to 3, high-valued = 3 and over

Check out these entries, answers already filled in.
| sequence-variant | qualitative-label |
| --- | --- |
| N8Q | high-valued |
| L7F | mid-valued |
| Q24P | mid-valued |
| R15T | high-valued |
| V21L | high-valued |
| L18C | mid-valued |
| A3K | low-valued |
| A4M | low-valued |

[Q] Class (by measured protein stability index) for L6P
[A] mid-valued

[Q] Tag the class for R15D
[A] mid-valued

[Q] Which protein stability index category applies to S10G here?
[A] low-valued

[Q] For G19C , which protein stability index bin applies?
[A] high-valued

[Q] Class label required: L2P
[A] low-valued

[Q] Place this variant in its band: L17C
[A] high-valued

[Q] Could you tell me which band I14M belongs to?
[A] high-valued
